Give pKd for every item shown.
Target: T1, Aβ1-42 fibrils (human)
T1 construct: Aβ1-42 polypeptide, HFIP-treated, incubated in 10 mM HCl at 37 C for 24 h, pelleted fibrillar fraction, sonicated; Multimeric fibril; also called fibril Aβ42; fibrillar Aβ42
T1 sequence (peptide, as listed by the source): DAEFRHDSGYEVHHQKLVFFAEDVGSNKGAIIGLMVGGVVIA
Test: SPR (BIAcore T200); Aβ1-42 fibrils immobilized, antibody as analyte; global 1:1 fit; apparent KD (avidity)
Kindly note that pKd refers to -log10 of the concentration in mol/L and answer with the value alone.

Which value of pKd has been reported for h2931 (antibody, V domains shown, also called PB-0576) VH: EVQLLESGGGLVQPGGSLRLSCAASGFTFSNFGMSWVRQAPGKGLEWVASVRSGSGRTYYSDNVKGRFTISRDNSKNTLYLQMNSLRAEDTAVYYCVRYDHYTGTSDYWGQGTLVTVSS VL: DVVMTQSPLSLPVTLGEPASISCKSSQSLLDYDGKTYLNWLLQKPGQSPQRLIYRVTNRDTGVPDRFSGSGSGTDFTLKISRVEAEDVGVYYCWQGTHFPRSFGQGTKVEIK in the records? 10.21

Which value of pKd has been reported for h2831 (antibody, V domains shown, Humanized IgG mAb; also called PB-0575) VH: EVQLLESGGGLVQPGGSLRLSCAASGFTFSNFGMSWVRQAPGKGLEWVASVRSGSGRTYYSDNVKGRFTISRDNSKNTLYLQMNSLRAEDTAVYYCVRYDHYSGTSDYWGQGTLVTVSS VL: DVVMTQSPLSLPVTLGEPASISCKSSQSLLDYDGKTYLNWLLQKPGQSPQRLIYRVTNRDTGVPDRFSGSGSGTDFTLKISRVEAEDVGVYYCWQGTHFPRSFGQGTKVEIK in the records? 9.95

Which value of pKd has been reported for h2726 (antibody, V domains shown, Humanized IgG mAb; Only the variable domains are tied to the construct; also called PB-0573) VH: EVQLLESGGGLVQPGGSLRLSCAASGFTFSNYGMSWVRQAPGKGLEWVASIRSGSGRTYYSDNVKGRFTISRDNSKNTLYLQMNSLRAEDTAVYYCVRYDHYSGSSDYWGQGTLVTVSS VL: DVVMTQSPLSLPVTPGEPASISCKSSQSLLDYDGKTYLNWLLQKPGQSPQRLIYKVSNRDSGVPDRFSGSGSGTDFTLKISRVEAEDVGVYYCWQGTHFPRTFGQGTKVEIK in the records? 10.27
